# tested-on: Human immunodeficiency virus type 1 reverse transcriptase (Human immunodeficiency virus 1) (UniProt Q72547)
# measurement-protocol: Inhibition of polymerase activity of HIV1 recombinant reverse transcriptase expressed in Escherichia coli at 50 uM
metric-name: inhibition (%)
Kindly answer with a numeric value in %, unit omitted.

Consider the reported inhibition for these compounds:
1. Cc1c(C(=O)O[C@H]2[C@@H](O)[C@H](O)O[C@H](CO)[C@H]2O)nnn1Cc1ccccc1    14
2. Cc1c(C(=O)OC[C@H]2O[C@@H](O)[C@H](O)[C@@H]2O)nnn1Cc1ccccc1    33.2
3. Cc1c(C(=O)OC[C@H]2O[C@H](O)[C@H](O)[C@H]2OCc2ccccc2)nnn1Cc1ccccc1    36.2
4. Cc1c(C(=O)OC[C@H]2O[C@@H]3OC(C)(C)O[C@@H]3[C@H]2OCc2ccccc2)nnn1Cc1ccccc1    65.4
5. Cc1c(C(=O)OC[C@@]23OC[C@H]4OC(C)(C)O[C@H]4[C@@H]2OC(C)(C)O3)nnn1Cc1ccccc1    47.9
6. Cc1c(C(=O)O[C@H]2[C@H](O)[C@@H](CO)OC(O)[C@@H]2O)nnn1Cc1ccccc1 (stereo partly drawn)    35.9
7. Cc1c(C(=O)O[C@H]2[C@@H]3OC(C)(C)O[C@@H]3CO[C@]23COC(C)(C)O3)nnn1Cc1ccccc1    43.5

Now examine the next entry.
The value of inhibition measured for the compound CO[C@@H]1O[C@H](COC(=O)c2nnn(Cc3ccccc3)c2C)[C@H]2OC(C)(C)O[C@@H]12 turned out to be 63.6
